src = the supplement of paper PMC11451515

test system: NOMO1; assay: AUC of viability dose-response curve (% viability x log10 dose units); higher = less sensitive; settings: RPMI 5 mM glucose + 10% FBS; 48 h
Measured AUC of viability dose-response curve of individual entries
reported metric: AUC of viability dose-response curve

molecular string	system under test	quantitative readout
CC(C)Oc1ccc(C(=O)N[C@H](CNC(=O)CN(C)C)Cc2ccc(-c3cn4cccc([C@H](C)O)c4n3)cc2)cc1Cl	NOMO1	331
CCOC(=O)/C=C/[C@H](C[C@@H]1CCNC1=O)NC(=O)[C@@H](CC(=O)[C@@H](NC(=O)c1cc(C)on1)C(C)C)Cc1ccc(F)cc1	NOMO1	469
COc1ccccc1N1CCN(CCN(C(=O)C2CCCCC2)c2ccccn2)CC1	NOMO1	469
CC(C)OC1=CC=C2C(=C1)O\C=C(/C2=O)C3=CC=CC=C3	NOMO1	435
